Target: truncated human beta-secretase (residues 1-458, His6-tagged at the C-terminus) (Homo sapiens)
Construct: truncated human beta-secretase (residues 1-458, His6-tagged at the C-terminus); His6 (C); made in house; host or cells: insect cells D. melanogaster S2 (baculovirus expression system (so in the source))
Sequence (P56817 22-458): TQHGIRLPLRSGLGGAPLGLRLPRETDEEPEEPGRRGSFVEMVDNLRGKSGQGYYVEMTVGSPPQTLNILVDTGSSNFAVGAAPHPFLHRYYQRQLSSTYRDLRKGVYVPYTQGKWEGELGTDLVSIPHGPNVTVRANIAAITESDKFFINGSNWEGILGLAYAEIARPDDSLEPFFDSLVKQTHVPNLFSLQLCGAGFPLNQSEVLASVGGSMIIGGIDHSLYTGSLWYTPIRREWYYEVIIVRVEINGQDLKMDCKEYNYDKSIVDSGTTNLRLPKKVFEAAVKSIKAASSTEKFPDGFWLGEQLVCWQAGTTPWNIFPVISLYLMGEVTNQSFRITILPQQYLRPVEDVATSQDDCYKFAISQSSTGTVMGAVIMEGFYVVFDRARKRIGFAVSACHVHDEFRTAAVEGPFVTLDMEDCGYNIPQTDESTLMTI
Assay: BACE fluorescence quench assay
Format: biochemical
Details: in vitro enzyme activity, BACE fluorescence assay, pH 4.5; read-out: IC50
The entries below come with measured IC50 values attached.

Worked set:
# input Query: IC50; subject: CN1O[C@]2(C[C@H]([C@@H]3CCCOC3)Oc3ccc(-c4cc(F)cc(F)c4)cc32)N=C1N (racemic) [Compound 322]
# output 0.1 to 0.5 µM

# input Repeat with CN1OC2(CC3(CCCOCC3)Oc3ccc(-c4cccc(C#N)c4)cc32)N=C1N (stereo not drawn) [Compound 116]
# output 1 to 5 µM

# input One more molecule: CN1OC2(CC3(CC4CCC3OC4)Oc3ccc(-c4cccc(C#N)c4)cc32)N=C1N (single isomer, unassigned) [Compound 379]
# output 1 to 5 µM

# input One more molecule: CN1OC2(C[C@H](C34CCC(CC3)OC4)Oc3ccc(-c4cccc(C#N)c4)cc32)N=C1N (stereo partly drawn) [Compound 345]
# output 0.1 to 0.5 µM

***
# input Fill in the blank: the reported IC50 of COc1ccc(OC)c(-c2ccc3c(c2)[C@]2(C[C@@]4(CCCOC4)O3)N=C(N)N(C)C2=O)c1 [Compound 321] is ____.
# output 0.1 to 0.5 µM

# input Further, for CN1C(=O)[C@@]2(CC(c3cccs3)Oc3ccc(-c4cccc(C#N)c4)cc32)N=C1N (stereo in doubt) [Compound 8a] ?
# output 0.1 to 0.5 µM

# input # iterate: CN1OC2(CC(c3ccncc3)Oc3ccc(-c4cccc(C#N)c4)cc32)N=C1N (stereo not drawn) [Compound 105]
# output 5 to 10 µM

# input Note, next up: Cc1ccc(C#N)cc1-c1ccc2c(c1)[C@]1(C[C@@]3(CCCOC3)O2)N=C(N)N(C)C1=O [Compound 413]
# output 1 to 5 µM
